The following compounds are shown together with reported composite z-score values.
Test system: Sonic hedgehog protein (Shh)
experiment.summary: Sonic hedgehog microarray binding compounds – biochemical, small-molecule microarray, 635/667 nm fluorescence, primary screen (AID 1151);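 note: Shh protein binding to compounds spotted on small-molecule microarray slides; score combines spot fluorescence intensity with signal-to-noise across triplicate slides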
assay.setup: 635 nm fluorescence, higher = more signal
assay.readout: composite z-score

compound: COC(=O)[C@@]1(Cc2ccc(F)cc2)[C@H]2c3cc(C(=O)N(C)C)n(Cc4cc(C)n(C)n4)c3C[C@H]2CN1C(=O)c1ccccc1
test.system: Sonic hedgehog protein (Shh)
assay.readout: composite z-score
measured.result: 0.303

compound: O=C1O[C@H](c2ccccc2)[C@H](c2ccccc2)N2[C@H]1[C@@H](C(=O)NC[C@H](O)c1ccccc1)[C@]1(C(=O)Nc3ccc(C#CC4=CCCCC4)cc31)[C@H]2c1ccccc1OCCO
test.system: Sonic hedgehog protein (Shh)
assay.readout: composite z-score
measured.result: 0.134

compound: CN1C(=O)C2C=CC(C(O)c3c(F)cccc3Cl)N(NC(=O)OC(C)(C)C)C2C1=O (stereo not drawn)
test.system: Sonic hedgehog protein (Shh)
assay.readout: composite z-score
measured.result: -0.0049

compound: CCCNC(=O)[C@@]1(Sc2ccc(C)cc2)CC(=O)N(Cc2ccccc2C(F)(F)F)[C@@H]1c1ccc(CO)cc1I
test.system: Sonic hedgehog protein (Shh)
assay.readout: composite z-score
measured.result: 1.88

compound: COc1ccc(-c2cc3c(c(Cc4ccccc4)n2)[Si](C(C)C)(C(C)C)OC3)cn1
test.system: Sonic hedgehog protein (Shh)
assay.readout: composite z-score
measured.result: -0.093

compound: Cc1ccc(S[C@]2(C(=O)O)CC(=O)N(C(C)C)[C@@H]2c2ccc(CO)cc2)cc1
test.system: Sonic hedgehog protein (Shh)
assay.readout: composite z-score
measured.result: -0.317

compound: COC(=O)[C@@]1(Cc2ccc(OC)cc2)[C@H]2c3cc(C(=O)N(C)C)n(Cc4ccc(C(F)(F)F)nc4)c3C[C@H]2CN1C(=O)c1ccccc1
test.system: Sonic hedgehog protein (Shh)
assay.readout: composite z-score
measured.result: -0.709

compound: COc1ccccc1CN1C(=O)c2ccccc2[C@@]2(Cc3ccccc3N(CCCN(C)C)C2=O)[C@@H]1c1ccc(CO)cc1
test.system: Sonic hedgehog protein (Shh)
assay.readout: composite z-score
measured.result: 0.243
